System: SK-MEL-28 melanoma
assay-comment: NCI tumour cell line growth inhibition, 48 h
measured-property: GI50

Exercise: For the compound COc1ccc(/C=C/C(=O)c2cc(OC)c(OC)c(OC)c2)cc1OCc1cn(Cc2ccc(F)cc2)nn1 , report GI50.
Key: 5.62 µM

Exercise: Look up and report measured GI50 for this entry: C=C1C(=O)O[C@H]2[C@H]1CC/C(COC(=O)CSCSCC(=O)OC/C1=C/CC[C@@]3(C)O[C@H]3[C@H]3OC(=O)C(=C)[C@@H]3CC1)=C\CC[C@@]1(C)O[C@@H]21
Key: 1.63 µM

Exercise: Give the reported value of GI50 for this record: COC(=O)c1ccc(-c2nc3cc(Cl)c(Cl)cc3nc2C#N)cc1
Key: > 100 µM
